Assay: In vivo pharmacokinetics, plasma concentration after p.o. dosing
Set-up: species or system Wistar rats
Conditions: male, Wistar, plasma, po; rat, 10 mg/kg p.o., 5.00 hours
Where a name gives a salt, the structure may show the parent alone.
ENDPOINT_LABEL: concentration at 5 h (ng/mL)
Please give a number only; it is taken to be in ng/mL.

Query block: Any idea what concentration at 5 h was measured for NC/C=C(\F)CS(=O)(=O)c1ccccc1 [Compound 1, hydrochloride] ?
Result block: 27.2

---

Assay: In vivo pharmacokinetics, plasma concentration after p.o. dosing
Set-up: species or system Wistar rats
Conditions: male, Wistar, plasma, po; rat, 30 mg/kg p.o., 2.00 hours
Where a name gives a salt, the structure may show the parent alone.
Documented concentration at 2 h across a set of compounds
Please give a number only; it is taken to be in µg/mL.

>>> print(df.to_string())
                                   compound        endpoint_label  result
0  NC/C=C(\F)CS(=O)(=O)c1cccc2cccnc12 [Compound 33, dihydrochloride]  concentration at 2 h    1.47

Switching to the query record.
Query block: Any idea what concentration at 2 h was measured for NC/C=C(\F)CS(=O)(=O)c1ccccc1 [Compound 1, hydrochloride] ?
Result block: 0.657
